Hello, the source for this data is patent US20160347808A1, in case you need it.

assayedTarget: T1, HLA-A*02:01 (peptide-receptive MHC class I monomer from UV-ligand exchange) (human)
T1 construct: Monomers were captured on streptavidin-coated plates
measurementDescription: UV-exchange ELISA (anti-b2m); exchange yield grade: + >=10%, ++ >=20%, +++ >=50%, ++++ >=75%
Description: Candidate peptides for T cell based therapies according to the present invention were further tested for their MHC binding capacity (affinity). The individual peptide-MHC complexes were produced by UV-ligand exchange, where a UV-sensitive peptide is cleaved upon UV-irradiation, and exchanged with the peptide of interest as analyzed. Only peptide candidates that can effectively bind and stabilize the peptide-receptive MHC molecules prevent dissociation of the MHC complexes. […]
parameter: peptide exchange yield

binder | peptide exchange yield
RLLGEEVVRV [peptide RLLGEEVVRV (SEQ ID NO 155)] | 50 to 75%
FLDASDPAL [peptide FLDASDPAL (SEQ ID NO 48)] | 20 to 50%
EMIENIQSV [peptide EMIENIQSV (SEQ ID NO 75)] | 20 to 50%
ALWWGVVTV [peptide ALWWGVVTV (SEQ ID NO 97)] | 20 to 50%
ALDSSNSMQTI [peptide ALDSSNSMQTI (SEQ ID NO 52)] | 20 to 50%
WIDDTSAFV [peptide WIDDTSAFV (SEQ ID NO 92)] | 50 to 75%

-- ask // query peptide exchange yield value for entry SLMMTIINL [peptide SLMMTIINL (SEQ ID NO 156)]
-- reply ≥ 75%

-- ask // query peptide exchange yield value for entry LLTDNVVKL [peptide LLTDNVVKL (SEQ ID NO 59)]
-- reply 50 to 75%
